Biological target: MAGL (Homo sapiens, UniProt Q99685)
Sequence (Q99685 1-303): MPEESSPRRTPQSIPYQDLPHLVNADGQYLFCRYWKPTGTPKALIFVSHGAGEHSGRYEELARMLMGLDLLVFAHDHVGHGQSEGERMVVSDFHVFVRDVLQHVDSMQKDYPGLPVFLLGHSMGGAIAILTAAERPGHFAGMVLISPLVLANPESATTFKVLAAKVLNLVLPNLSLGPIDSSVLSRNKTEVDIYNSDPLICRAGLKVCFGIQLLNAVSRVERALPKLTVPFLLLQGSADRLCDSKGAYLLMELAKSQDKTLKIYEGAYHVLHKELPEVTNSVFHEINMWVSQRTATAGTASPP
Assay: MAGL inhibition, 2-AG assay (hydrolysis of 2-arachidonoylglycerol, arachidonic acid by mass spectrometry)
Format: biochemical
Settings: 2-AG assay (footnote [b])
Quantity Name: IC50 (nM)

Consider the worked cases shown below.
Compound: O=C1CO[C@H]2CCN(C(=O)N3CC(c4ccc(-c5ccc(Cl)cc5Cl)nc4)C3)C[C@H]2N1
Value Measured: 1
//
Compound: O=C1CO[C@H]2CCN(C(=O)N3CCC(C(c4ccc(F)cc4)c4nc(C5CC5)no4)CC3)C[C@H]2N1 (single isomer, unassigned) [Example 95]
Value Measured: 16
//
Compound: O=C1CO[C@H]2CCN(C(=O)N3CCC(C(c4ccccc4)c4ccc(F)cc4)CC3)C[C@H]2N1 (single isomer, unassigned)
Value Measured: 0.2
//
Compound: O=C1CO[C@H]2CCN(C(=O)N3CCC(C(c4ccc(F)cc4)c4nc(C(F)(F)F)no4)CC3)C[C@H]2N1 (some centres unmarked)
Value Measured: 5
//
Compound: CCCOc1ccc(C2CN(C(=O)N3CC[C@@H]4OCC(=O)N[C@@H]4C3)C2)cc1
Value Measured: 5
//
Compound: O=C1CO[C@H]2CCN(C(=O)N3CC(c4ccc(OC(F)(F)F)c(F)c4)C3)C[C@H]2N1
Value Measured: 12
//
Compound: O=C1CO[C@H]2CCN(C(=O)N3CCC(c4cccc(Br)c4)C3)C[C@H]2N1 (single isomer, unassigned) [Example 229]
Value Measured: 229
//
Compound: O=C1CO[C@H]2CCN(C(=O)N3CC(C(OCC(F)(F)F)c4ccc(F)cc4)C3)C[C@H]2N1 (single isomer, unassigned)
Value Measured: 318
//
Compound: COc1cc(C2CN(C(=O)N3CC[C@@H]4OCC(=O)N[C@@H]4C3)C2)ccc1C
Value Measured: 106
//
Compound: O=C1CO[C@H]2CCN(C(=O)N3CCC(c4ccc(Br)cc4)CC3)C[C@H]2N1
Value Measured: 289

P = CC(Oc1ccc(C2CN(C(=O)N3CC[C@@H]4OCC(=O)N[C@@H]4C3)C2)cc1)C(F)(F)F (single isomer, unassigned) [Example 248]
Q = CC(Oc1ccc(C(F)(F)F)cc1)C1CN(C(=O)N2CC[C@@H]3OCC(=O)N[C@@H]3C2)C1 (single isomer, unassigned) [Example 98]
R = O=C1CO[C@H]2CCN(C(=O)N3CC(c4ccc(N5CCC(C(F)(F)F)C5)nc4)C3)C[C@H]2N1 (some centres unmarked) [Example 275]
S = N#Cc1cc(C2CN(C(=O)N3CC[C@@H]4OCC(=O)N[C@@H]4C3)C2)ccc1OC(F)(F)F
Input line: Arrange by IC50, high to low. Return the labels ranked in the requested order, please.
Output line: S, Q, R, P
(S: 114 nM, Q: 62 nM, R: 4 nM, P: 1 nM)

A = O=C1CO[C@H]2CCN(C(=O)N3CCC(C(Oc4ccc(F)cc4Cl)C(F)(F)F)CC3)C[C@H]2N1 (some centres unmarked)
B = CC(Oc1ccc(C2CN(C(=O)N3CC[C@@H]4OCC(=O)N[C@@H]4C3)C2)cc1)C(F)(F)F (single isomer, unassigned) [Example 246]
Input line: Could you point out whether the larger IC50 belongs to A or to B ? Label of pick, please.
Output line: A
(A: 3 nM, B: 1 nM)
